Source: PubChem BioAssay (NCI)

In this section, each of the compounds is paired with its reported TGI.
Tested on: DU-145 prostate
experiment: NCI tumour cell line growth inhibition, 48 h

compound | TGI
CN(Cc1cc(Br)cc(Br)c1O)Cc1cc(Br)cc(Br)c1O | 22.2 µM
O=C(Nc1ccccc1)N(C1=NCC(CI)S1)c1ccc(F)cc1F (stereo not given) | > 100 µM
Cc1ccc(-c2cc3c(SCC(=O)Nc4cc(C(F)(F)F)ccc4Cl)nccn3n2)cc1 | > 100 µM
COc1cc(OC)c2nc(C)c3c(c2c1)NCC3 | 59 µM
COc1cc(S(=O)(=O)Nc2ccc(-c3csc(N)n3)cc2)ccc1Cl | 32.4 µM
CCOc1ccc(N/C(Cl)=C(Cl)\C(=C(\Nc2ccc(OCC)cc2)n2nnc3ccccc32)[N+](=O)[O-])cc1 | 46.8 µM
CC(=O)OC/C=C\Cn1nc(Br)c(=O)[nH]c1=O | 31.9 µM
CC(=O)CSc1c(-c2ccccc2)c(=O)n(-c2ccccc2)c(=S)n1-c1ccccc1 | > 100 µM
CC(C)=NNC=N/C(C#N)=C(\N)C#N | > 100 µM
COCCCNC(=O)C1=C(C)NC(C)=C(C(=O)NCCCOC)C1 | > 100 µM
O=c1oc2ccccc2c(O)c1/C=N/C(=S)NCCc1ccccc1 | > 100 µM
CC(NC(=O)c1ccccc1)NC(=O)C(C)C(=O)Nc1ccccc1 (stereo not given) | > 100 µM
O=c1[nH]nc(Cc2ccccc2)n1/N=C\c1ccccc1 | > 100 µM
Nc1nc2c(s1)CCc1c-2c(Br)n(Cc2ccccc2)c1Br | 37.3 µM
C[C@H](Nc1ncnc2nc[nH]c12)c1cc2ccc(F)cc2nc1-c1ccccn1 | > 100 µM
O=P1(Oc2ccccc2)N(CCCl)CCN1c1ccccc1 (stereo not given) | > 100 µM
C=C(C)[C@H]1C=C[C@@H](OC(=O)c2cccnc2)[C@@]23CO[C@@](C)([C@H](OC(=O)c4cccnc4)[C@@]4(OC(C)=O)C[C@H](C)[C@H](OCCC)[C@@H]4[C@H]2OC(C)=O)[C@H]13 | > 15 µM
Cc1ccc(S(=O)(=O)N2CCSCCN(S(=O)(=O)c3ccc(C)cc3)CCN(S(=O)(=O)c3ccc(C)cc3)CC2)cc1 | > 100 µM
Cc1ccc(Nc2c(C#N)[n+]([O-])c3cc(Cl)ccc3[n+]2[O-])cc1 | > 100 µM
COc1cc2nc(SCC(=O)Nc3cc(OC)c(OC)c(OC)c3)n(Cc3ccccc3)c(=O)c2cc1OC | > 100 µM

* * *

System: MALME-3M melanoma
experiment: NCI tumour cell line growth inhibition, 48 h

compound | qualifier.sign | TGI (µM)
COc1cc(OC)c(/C=C\c2cc(/C=C/c3c(OC)cc(OC)cc3OC)c3ccccc3[n+]2C)c(OC)c1 | = | 4.52
CC(=O)OC/C=C\Cn1nc(Br)c(=O)[nH]c1=O | = | 31.1
COC(=O)C(CC(C)C)NC(=O)NC12CC3CC(CC(F)(C3)C1)C2 (stereo not given) | > | 100
CO/N=C(\C(=O)N(C)n1cnnc1)c1csc(NC(c2ccccc2)(c2ccccc2)c2ccccc2)n1 | > | 10
CC1=NOC(=O)/C1=C/c1cccc2ccccc12 | > | 100

* * *

System: HL-60(TB) leukemia
experiment: NCI tumour cell line growth inhibition, 48 h
In this section, each of the molecules is paired with its reported TGI.

molecule | TGI
Cc1cc(S(=O)(=O)Nc2cc(N)[nH]n2)c(SCc2nc(N)nc(N(C)C)n2)cc1Cl | > 10 µM
COc1cc(-c2nc3ccccc3s2)ccc1NC(=O)COc1ccc(Cl)cc1 | > 100 µM
NCCN1C(=O)CN=C(c2ccc(Cl)cc2)c2cc(Cl)ccc21 | 37.7 µM
CN(Cc1cc(Br)cc(Br)c1O)Cc1cc(Br)cc(Br)c1O | 10.9 µM
Cc1ccc(N=Nc2ccc(O)c(CN(C)C)c2)cc1 | 41.3 µM
CC(=O)OC1CCCn2c1nc1c2C(=O)C(C)=C(N2CC2)C1=O (centres undefined) | 14.6 µM
COc1ccc(C2CC(c3cc(C)ccc3O)=NC(N)=N2)cc1 (centres undefined) | > 100 µM
COC(=O)/C=C(\C(=O)OC)c1c2c3c(cc(OC)c(OC)c3c3ccccc13)CCN2C | 56.3 µM
Cn1cc(C2=C(c3cn(C)c4c([N+](=O)[O-])cccc34)C(=O)NC2=O)c2ccccc21 | > 25 µM
CCN(CC)c1ccc2cc(C(=O)Nc3ccccc3)c(=N)oc2c1 | > 100 µM
CS(=O)(=O)Nc1ccc(-c2cc(-c3ccccc3)cc(C(N)=O)c2N)cc1 | > 25 µM
COc1c(C(=O)c2ccc([N+](=O)[O-])cc2)cc(C(C)(C)C)cc1C(C)(C)C | 47.2 µM
COCCCNC(=O)C1=C(C)NC(C)=C(C(=O)NCCCOC)C1 | > 100 µM
Nc1nc2c(s1)CCc1c-2c(Br)n(Cc2ccccc2)c1Br | 37.1 µM
CC(=O)c1ccc(OCC(O)CO)cc1 (centres undefined) | > 100 µM
Nc1ccn(C2CCC(CO)O2)c(=S)n1 (centres undefined) | > 100 µM
CC1(C)Cc2c(C#N)c(N)c3c(c2CO1)C(=O)OC3=O | > 100 µM
C[C@]12CC[C@H](O)C[C@H]1CC[C@@H]1[C@@H]2CC[C@]2(C)[C@@H](C3=CC(=O)OC3)[C@@H](O)C[C@]12O | 3.45 µM
CN(NC(=O)c1cccs1)C1=NCCCCN1 | > 100 µM
O=C(c1ccccc1)c1ccc(Oc2ccc([N+](=O)[O-])cc2[N+](=O)[O-])cc1 | 5.89 µM
Cc1ccc(-c2cc(C(F)(F)F)nn2-c2ccc(S(N)(=O)=O)cc2)cc1 | 42.7 µM
Cc1[nH]nc(N)c1C(N)=O | > 100 µM
CNC(=O)SCC(N)C(=O)O (centres undefined) | > 100 µM
CCCCCCCCOCC(O)COC(=O)CCCCCCC (centres undefined) | 93.9 µM
Cc1ncc2c(=O)c3c(oc2n1)c1ccccc1n3Cc1ccccc1 | > 100 µM
Clc1cccc(Cl)c1C1CSc2ccccc2N=C1c1ccccc1 (centres undefined) | 38.7 µM
CCCCCCCCN(CCCCCCCC)CCCCCCNc1cc(OC)cc2cccnc12 | 37.3 µM
CCOC(=O)C(C)NC(=O)C(C)NC(=O)C(C)NC(=O)C(C)NC(=O)C(C)NC(=O)OCc1ccccc1 (centres undefined) | > 100 µM
c1ccc(-n2nc3ccc4nonc4c3n2)cc1 | > 100 µM
Cc1cc2c(cc1C)[n+](=O)c(C(=O)C/C(=N/OCCCc1ccccc1)C(=O)Nc1cc(Cl)ccc1Cl)c(C)n2[O-] | > 100 µM
CC1(C)CCC2=C(O1)c1ccccc1C(=O)C2=O | > 100 µM
CCOC(=O)CSC(=O)NCCCl | > 100 µM
Cc1cccc2c1N(C(=O)/C=C\C(=O)O)C(c1c(C)[nH]c3ccccc13)C2 (centres undefined) | 51.3 µM
COC(CC1(/C=C/O[Si](C(C)C)(C(C)C)C(C)C)C(=O)N(C)c2ccccc21)OC (centres undefined) | > 100 µM
O=C(O)c1ccc(NC(NC(=O)C(C(F)(F)F)C(F)(F)F)(C(F)(F)F)C(F)(F)F)cc1 | > 100 µM
CCCC(=O)NC1CCc2cc(OC)c(OC)c(OC)c2-c2ccc(OC)c(=O)cc21 (centres undefined) | 0.158 µM
COC(=O)[C@@H]1CN(C(C)=O)C(=O)N1C(=O)OCc1ccccc1 | > 100 µM
COc1cc(OC)c2nc(C)c3c(c2c1)NCC3 | 40.7 µM
COc1cc2cccc(N)c2cc1OC | > 100 µM
NS(=O)(=O)c1ccc(NC2=CC(=O)C(=O)c3ccccc32)cc1 | > 100 µM
O=[N+]([O-])c1ccc(Sc2ncnc3nc[nH]c23)c2nonc12 | 6.03 µM
Nc1nc(OCc2cc(Br)cs2)c2[nH]cnc2n1 | > 100 µM
COc1ccc2c(c1)[nH]c(=O)c1c3cc(OC)ccc3cn21 | < 0.01 µM
CC(=O)Nc1ccc2[nH]c(-c3cccc(Cl)c3)cc(=O)c2c1 | > 100 µM

* * *

Tested on: SK-MEL-28 melanoma
experiment: NCI tumour cell line growth inhibition, 48 h
result.type: GI50

structure.smiles | result.type | observed.measurement
O=C(CN(/C=C/C(=O)C(F)(F)F)c1ccc(Cl)cc1)c1ccccc1 | GI50 | 17.3 µM
Clc1ccc2c(c1)N(CCCN1CCCC1)c1ccccc1S2 | GI50 | 6.6 µM
CCOC(=O)n1cc(C2=C(c3cn(C)c4ccccc34)COC2=O)c2ccccc21 | GI50 | 1.03 µM
COc1cc2nc(SCC(=O)Nc3cc(OC)c(OC)c(OC)c3)n(Cc3ccccc3)c(=O)c2cc1OC | GI50 | 3.02 µM
CC(=O)c1cc(C(=O)c2ccc3c(c2)Sc2ccccc2N3)c2c(C)cc(C)cn12 | GI50 | 3.64 µM
Nc1nc2c(s1)CCc1c-2c(Br)n(Cc2ccccc2)c1Br | GI50 | 12.9 µM
